Cited source: patent US20130109721A1

Target: FAAH (Rattus norvegicus, UniProt P97612)
Construct: For assay of FAAH activity in rat brain membrane (RBM) homogenates; tissue Charles River
Sequence (P97612 whole entry): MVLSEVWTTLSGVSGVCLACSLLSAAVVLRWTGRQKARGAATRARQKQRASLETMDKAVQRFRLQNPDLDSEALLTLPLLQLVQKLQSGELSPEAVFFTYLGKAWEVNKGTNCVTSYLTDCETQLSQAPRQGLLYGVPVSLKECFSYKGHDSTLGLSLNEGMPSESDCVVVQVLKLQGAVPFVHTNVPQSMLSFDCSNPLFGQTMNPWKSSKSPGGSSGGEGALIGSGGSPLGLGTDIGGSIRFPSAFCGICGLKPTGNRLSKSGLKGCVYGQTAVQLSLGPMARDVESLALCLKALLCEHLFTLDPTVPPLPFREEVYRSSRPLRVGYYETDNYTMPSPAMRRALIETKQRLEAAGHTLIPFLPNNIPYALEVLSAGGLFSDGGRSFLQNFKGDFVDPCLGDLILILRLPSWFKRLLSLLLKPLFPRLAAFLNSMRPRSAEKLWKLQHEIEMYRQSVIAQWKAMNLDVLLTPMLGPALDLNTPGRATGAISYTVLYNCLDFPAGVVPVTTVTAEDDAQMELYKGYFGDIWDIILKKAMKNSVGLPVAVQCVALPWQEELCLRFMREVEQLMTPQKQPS
Experiment: FAAH inhibition, rat brain membrane homogenate assay
Conditions: average; FAAH extracted from rat brain homogenate; read-out: Rat Brian Extract IC50
pIC50: −log10 of the molar value.
Short version: pIC50 at least 8 is class 1, less is class 0.

Cc1c(C(=O)C(=O)Nc2ccncc2)cc(-c2ccccc2)n1Cc1ccc(Cl)cc1 [Compound I-26] : class 0

Data request: Confirm if pIC50 reported for the compound Cc1c(C(=O)C(=O)Nc2cccc(Cl)c2)cc(-c2ccccc2)n1Cc1ccc(Cl)cc1 [Compound I-25] is 8 or above.
Data returned: class 0

Data request: I'd appreciate it if you could say whether Cc1c(C(=O)C(=O)Nc2cccc(Cl)c2)c(-c2ccccc2)c(C)n1Cc1ccc(Cl)cc1 [Compound I-20] has pIC50 at least equal to 8.
Data returned: class 0
